- measured_target: T1, mouse IL-25 expressed with a C-terminal myc-myc-hexahistidine tag (mouse)
- T1 construct: also called Mouse IL-25-MMH; mIL-25-MMH
- T1 chain: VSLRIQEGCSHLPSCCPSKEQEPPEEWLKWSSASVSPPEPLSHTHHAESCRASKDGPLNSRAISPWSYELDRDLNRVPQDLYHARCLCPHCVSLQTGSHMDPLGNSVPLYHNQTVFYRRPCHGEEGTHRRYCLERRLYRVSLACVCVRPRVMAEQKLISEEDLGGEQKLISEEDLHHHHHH
- measurement_protocol: SPR Biacore, antibody captured, 25C
reported_property: 100 nM Mouse IL-25-MMH Bound (RU)
// return numeric value only (unit: RU, not printed)

# binder, 100 nM Mouse IL-25-MMH Bound (RU)
rows = [
    ("H4H10876P (antibody, human IgG4, V domains shown, H4H prefix = human IgG4 Fc) VH: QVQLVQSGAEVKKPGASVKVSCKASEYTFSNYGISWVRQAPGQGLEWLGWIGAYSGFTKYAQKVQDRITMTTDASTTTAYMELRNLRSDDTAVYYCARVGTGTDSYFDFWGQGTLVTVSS VL: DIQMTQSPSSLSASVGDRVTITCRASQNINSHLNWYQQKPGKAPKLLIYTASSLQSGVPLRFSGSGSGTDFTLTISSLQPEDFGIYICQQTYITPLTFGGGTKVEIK", 40),
    ("H4H10861P (antibody, human IgG4, V domains shown, H4H prefix = human IgG4 Fc) VH: QVQLQESGPGLVKPSETLSLTCTVSGASISNYYWSWIRQPPGKGLEWIGYIFYSGNTNYNPSLKSRVTISVDTSKNQFSLKLSSVTAADTAVYYCARVRFSDYELNWFDPWGQGTLVTVSS VL: DIVMTQSPDSLAVFLGERATINCRSSQSVFLGSNNKNYLAWYQQKPGQPPKLLIYWASSRESGVPDRFSGSGSGTDFTLTINSLQAEDVAVYYCQQYFITPLTFGGGTKVEIK", 0),
    ("H4H10897P (antibody, human IgG4, V domains shown, H4H prefix = human IgG4 Fc) VH: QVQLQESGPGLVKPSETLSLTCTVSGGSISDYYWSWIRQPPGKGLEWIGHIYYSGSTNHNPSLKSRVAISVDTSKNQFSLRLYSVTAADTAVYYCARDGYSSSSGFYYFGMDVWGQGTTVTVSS VL: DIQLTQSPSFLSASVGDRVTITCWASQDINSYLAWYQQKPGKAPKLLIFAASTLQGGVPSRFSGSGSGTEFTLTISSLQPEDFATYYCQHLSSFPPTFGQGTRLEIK", 20),
    ("H4H10905P (antibody, human IgG4, V domains shown, H4H prefix = human IgG4 Fc) VH: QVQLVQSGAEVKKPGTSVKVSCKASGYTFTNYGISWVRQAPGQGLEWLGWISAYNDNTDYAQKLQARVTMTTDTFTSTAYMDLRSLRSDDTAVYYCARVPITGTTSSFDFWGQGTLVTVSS VL: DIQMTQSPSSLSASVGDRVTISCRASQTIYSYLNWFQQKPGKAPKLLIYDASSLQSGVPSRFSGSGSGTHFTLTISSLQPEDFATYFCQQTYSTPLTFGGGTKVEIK", 43),
    ("H4H10901P (antibody, human IgG4, V domains shown, H4H prefix = human IgG4 Fc) VH: QLQLQESGPGLVRPSETLSLTCSVSSGSIRSSNYYWGWIRQPPGKGLEWIGNIYYSGNTFYNPSLKGRVTISVDTSKNQFSLKLSSVTATDTAVYYCARQGYSDYELNWFDPWGQGTLVTVSS VL: DIVMTQSPDSLVLSLGERATFNCKSSQSVLDSSNNKNYLAWYQQKPGQPPKLLIYWASTRESGVPDRFSGSGSGTDFSLTISSLQAEDVALYYCQQFYNSPWTFGQGTKVEIK", 1),
    ("H4H10863P (antibody, human IgG4, V domains shown, H4H prefix = human IgG4 Fc) VH: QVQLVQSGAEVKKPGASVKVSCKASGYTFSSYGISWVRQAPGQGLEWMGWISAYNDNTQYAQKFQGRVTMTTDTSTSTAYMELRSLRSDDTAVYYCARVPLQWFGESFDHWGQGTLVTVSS VL: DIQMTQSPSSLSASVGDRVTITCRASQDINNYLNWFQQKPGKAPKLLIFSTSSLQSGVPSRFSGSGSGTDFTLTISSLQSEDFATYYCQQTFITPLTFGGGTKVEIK", 22),
]

What value of 100 nM Mouse IL-25-MMH Bound (RU) has been recorded for this entry: H4H10871P (antibody, human IgG4, V domains shown, H4H prefix = human IgG4 Fc) VH: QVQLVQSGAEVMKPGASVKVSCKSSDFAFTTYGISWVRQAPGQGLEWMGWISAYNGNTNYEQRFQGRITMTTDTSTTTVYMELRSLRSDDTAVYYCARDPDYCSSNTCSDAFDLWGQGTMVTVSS VL: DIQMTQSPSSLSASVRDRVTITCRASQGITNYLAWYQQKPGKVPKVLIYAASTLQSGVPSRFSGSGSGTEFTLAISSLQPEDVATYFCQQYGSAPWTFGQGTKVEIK
30

What value of 100 nM Mouse IL-25-MMH Bound (RU) has been recorded for this entry: H4H10907P (antibody, human IgG4, V domains shown, H4H prefix = human IgG4 Fc) VH: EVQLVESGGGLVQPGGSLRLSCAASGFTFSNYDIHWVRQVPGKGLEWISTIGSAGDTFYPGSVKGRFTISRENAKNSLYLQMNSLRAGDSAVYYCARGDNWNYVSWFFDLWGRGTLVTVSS VL: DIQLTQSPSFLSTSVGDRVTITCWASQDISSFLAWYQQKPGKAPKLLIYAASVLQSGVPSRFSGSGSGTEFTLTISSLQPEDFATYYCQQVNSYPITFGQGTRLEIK
10

What value of 100 nM Mouse IL-25-MMH Bound (RU) has been recorded for this entry: H4H10883P (antibody, human IgG4, V domains shown, H4H prefix = human IgG4 Fc) VH: QVQLQESGPGLVKSSETLSLTCTVSGGSISSYYWSWIRQPPGKGLEWIGFIYYSGSTNYNPSLKSRVTFSVDTSKNHFSLKLNSVTATDTAVYYCARHYFDSGTYELGPFDYWGQGTLVTVSS VL: DIVMTQSPDSLAVSLGERATINCKSSQNILLTSSNKNYLTWYQQKPGQPPKLLIYWASIRESGVPDRFSGSGSGTDFTLTISSLQAEDVALYFCQQYYITPFTFGPGTKVDIK
0

All figures here come from patent US20160083466A1.
